target-of-assay: kinase domain of ULK2 (Homo sapiens, UniProt Q8IYT8)
Sequence (Q8IYT8 1-276 limits assumed): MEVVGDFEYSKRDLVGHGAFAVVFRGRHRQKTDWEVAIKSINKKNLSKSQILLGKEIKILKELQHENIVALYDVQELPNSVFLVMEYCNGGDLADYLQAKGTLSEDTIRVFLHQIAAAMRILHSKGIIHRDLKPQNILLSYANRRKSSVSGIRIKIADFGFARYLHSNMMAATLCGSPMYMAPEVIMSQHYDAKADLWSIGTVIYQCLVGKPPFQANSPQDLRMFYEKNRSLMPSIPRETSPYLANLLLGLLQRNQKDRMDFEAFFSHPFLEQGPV
conditions: binder
reported-endpoint: ULK2 PTS (ºC) (°C)

The examples below pair each entry with its known result.
CNC(=O)c1ccccc1Nc1nc(Nc2ccc(N3CCOCC3)cc2OC)ncc1C(F)(F)F = 6.50
CNC(=O)c1ccccc1Nc1nc(Nc2cc(OC)ccc2C)ncc1Cl = 3.38
CNC(=O)c1ccccc1Nc1nc(Nc2ccc3[nH]ccc3c2)ncc1Cl = 5.86
CNC(=O)c1ccccc1Nc1nc(Nc2cc(OC)ccc2C)ncc1C(F)(F)F = 7.08
CNC(=O)c1ccccc1Nc1nc(Nc2ccc3c(c2)CCC(=O)N3)ncc1C(F)(F)F = 3.73

I: CNC(=O)c1ccccc1Nc1nc(Nc2cc(N3CCOCC3)cc(N3CCOCC3)c2)ncc1C(F)(F)F
II: CNC(=O)c1ccccc1Nc1nc(Nc2cc(OC)ccc2C)ncc1Br
Prompt: Please indicate which has the smaller reported ULK2 PTS (ºC): I , or II . Indicate which entry you chose by stating its label.
Completion: II
(II: 4.28 °C, I: 16.70 °C)

1: CNC(=O)c1ccccc1Nc1ccnc(Nc2cc(OC)c(OC)c(OC)c2)n1
2: CNC(=O)c1ccccc1Nc1nc(Nc2cc(OC)c(OC)c(OC)c2)ncc1Cl
Prompt: Select one: 1 or 2 . Criterion: greater recorded ULK2 PTS (ºC). Indicate which entry you chose by stating its label.
Completion: 2

Just for reference, paper doi:10.1101/2025.10.14.682402v1 is where these values come from.
